assay: Induction of hemolysis in horse RBC at 200 uM incubated for 1 hr; format: toxicity, cell-based, Equus caballus, Erythrocyte; details: horse red blood cells (erythrocytes), read-out: Activity
OUTCOME_MEASURE: hemolysis at 1 h, 200 µM

{"MOLECULE": "O=C(Nc1cccc(Cl)c1)NC1CCN(CCC(Oc2ccc(Cl)cc2)c2ccccc2)CC1 (racemic)", "hemolysis at 1 h, 200 µM": "< 1%"}
{"MOLECULE": "O=C(Nc1cccc(Cl)c1)NC1CCN(CCC(Oc2cccc(C(F)(F)F)c2)c2ccccc2)CC1 (racemic)", "hemolysis at 1 h, 200 µM": "< 1%"}

Let's switch to this molecule now.
Qu. Need hemolysis at 1 h, 200 µM of O=C(Nc1cccc(Cl)c1)NC1CCN(CCC(Oc2cccc(Cl)c2)c2ccccc2)CC1 (racemic) , thanks.
Ans. < 1%

====

assay: Cytotoxicity against human MRC5 cells assessed as reduction in cell viability incubated for 24 hrs by MTT assay; format: toxicity, cell-based
# IC50 at 24 h listing for each entry below
Phrase the answer as number then unit, nothing more needed.

The examples below pair each entry with its known result.
{"COMPOUND": "COc1cccc2c1C(=O)c1c(O)c3c(c(O)c1C2=O)C[C@@](O)(C(=O)CO)C[C@@H]3O[C@H]1C[C@H](N)[C@H](O)[C@H](C)O1", "IC50 at 24 h": "0.39 µg/mL"}
{"COMPOUND": "O=C(Nc1cccc(Cl)c1)N[C@H]1CCN(CCC(Oc2cccc(Cl)c2)c2ccccc2)C1 (some centres undefined)", "IC50 at 24 h": "3.12 µg/mL"}
{"COMPOUND": "O=C(Nc1cccc(Cl)c1)N[C@H]1CCN(CCC(Oc2ccc(Cl)cc2)c2ccccc2)C1 (some centres undefined)", "IC50 at 24 h": "3.12 µg/mL"}

Qu. Need IC50 at 24 h of O=C(NCC1CCN(CCC(Oc2cccc(Cl)c2)c2ccccc2)CC1)Nc1cccc(Cl)c1 (racemic) , thanks.
Ans. 3.12 µg/mL
